B1: BEX1 (parent)
chain: HSLRAVSTDPPHHDHHDEFCLMP

- Variants of: B1
- test_protocol: protein stability index of a GFP-peptide fusion (GPS, HEK-293T) (PSI 1-6); higher = more stable;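 further: lentivirally expressed fusions sorted by FACS into six bins by GFP to DsRed ratio, PSI derived from sequencing read proportions per bin multiplied by bin number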
- measurement_conditions: c terminus: native
Label rule, in plain words: protein stability index of 2 and up is Met, under 2 is Not met.

E18S    Met
H13A    Met
H12K    Met
P10G    Not met
H1E    Met

q: Answer whether protein stability index of L3S is greater than or equal to 2.
a: Met

q: Please tell me: is the variant H12V at or over 2 in terms of protein stability index?
a: Met

q: Say whether C20T shows protein stability index of 2 or more.
a: Met

q: Could you tell me if the measured protein stability index of S2W reaches 2 or more?
a: Not met

q: Check this variant for protein stability index at or above 2: M22F
a: Not met

q: Given the entry A5D , answer whether its protein stability index meets or surpasses 2.
a: Not met

q: Hi team, for S7Q , is the recorded protein stability index at or above 2?
a: Met

q: Say whether F19D shows protein stability index of 2 or more.
a: Met

q: Dear colleague, could you confirm whether M22R has protein stability index at or above 2?
a: Met

q: # check: protein stability index of H13Q is greater than or equal to 2
a: Not met

q: Could you please find out whether E18F has protein stability index that meets 2 or exceeds it?
a: Met
